- measured_target: c-Myc template DNA (c-myc quadruplex)
- assay_details: Quadruplex binding / stop assay (Taq polymerase arrest, capillary electrophoresis)
- condition: read-out: Stop Data c-Myc μM; concentration at which 50% of the DNA was arrested (arrested:full-length 1:1)

compound: O=C(O)c1cn2c3c(c(N4CC5CCCNC5C4)c(F)cc3c1=O)Oc1cc3ccccc3cc1-2 (stereo not drawn)
IC50, µM: 0.75
//
compound: CN(C)CCCCNC(=O)c1cn2c3cc4c(cc3oc3c(NCCC5CCCN5C)c(F)cc(c1=O)c32)c(=O)c1ccccc14 (stereo not drawn)
IC50, µM: 0.75
//
compound: O=C(c1cn2c3c(c(NCCN4CCCCC4)c(F)cc3c1=O)Oc1cc3ccccc3cc1-2)N1CCOCC1
IC50, µM: 1.75
//
compound: CC1CCCCN1CCCNc1c(F)cc2c(=O)c(C(=O)NCCC3CCCN3C)cn3c2c1Oc1cc2ccccc2cc1-3 (stereo not drawn) [compound 557]
IC50, µM: 0.375
//
compound: CN1CCN(CCCNC(=O)c2cn3c4c(c(NCCCN5CCN(C)CC5)c(F)cc4c2=O)Oc2cc4c(cc2-3)oc2ccccc24)CC1
IC50, µM: 1.75
//
compound: CN1CCCC1CCNc1c(F)cc2c(=O)c(C(=O)N3CCC(N)C3)cn3c4cc5c(=O)c6ccccc6c(=O)c5cc4oc1c23 (stereo not drawn)
IC50, µM: 2.5
//
compound: Nc1c(F)c(NCCCN2CCOCC2)c2c3c1c(=O)c(C(=O)N1CCOCC1)cn3-c1cc3ccccc3cc1O2
IC50, µM: 1.75
//
compound: CC1CCCC(C)N1CCCNC(=O)c1cn2c3c(c(N4CCC(N)C4)c(F)cc3c1=O)Oc1cc3ccccc3cc1-2 (stereo not drawn) [compound 337]
IC50, µM: 1
//
compound: O=C(CCN1CCCCC1)N[C@@H]1CCN(c2c(F)cc3c(=O)c(C(=O)NCCN4CCOCC4)cn4c3c2Oc2cc3c(cc2-4)oc2ccccc23)C1
IC50, µM: 1
//
compound: O=C(O)c1cn2c3c(c(NCC4CCCO4)c(F)cc3c1=O)Oc1cc3ccccc3cc1-2 (stereo not drawn)
IC50, µM: 4
//
compound: CC1CCCN(CCCNC(=O)c2cn3c4c(c(N5CCC(N)C5)c(F)cc4c2=O)Oc2cc4ccccc4cc2-3)C1 (stereo not drawn)
IC50, µM: 1.75
//
compound: O=C(Nc1nc2ccccc2s1)c1cn2c3c(c(NCCN4CCCC4)c(F)cc3c1=O)Oc1ccccc1-2
IC50, µM: 1.75
//
compound: CN(CCc1ccccn1)C(=O)c1cn2c3c(c(N4CC[C@@H](N)C4)c(F)cc3c1=O)Oc1c-2ccc2ccccc12
IC50, µM: 2.5
//
compound: CCCCOCCCNc1c(F)cc2c(=O)c(C(=O)NCCC3CCCN3C)cn3c2c1Oc1cc2ccccc2cc1-3 (stereo not drawn)
IC50, µM: 1.75
//
compound: CN1CCN(C(=O)c2cn3c4c(c(NCCC5CCCN5C)c(F)cc4c2=O)Oc2c-3ccc3ccccc23)CC1 (stereo not drawn)
IC50, µM: 2.5
//
compound: CN1CCCC1CCNC(=O)c1cn2c3c(c(NC(=O)C4CCCNC4)c(F)cc3c1=O)Oc1cc3ccccc3cc1-2 (stereo not drawn)
IC50, µM: 1.75
//
compound: O=C(CCN1CCCC1)N[C@@H]1CCN(c2c(F)cc3c(=O)c(C(=O)NCCN4CCCC4)cn4c3c2Oc2cc3c(cc2-4)oc2ccccc23)C1
IC50, µM: 0.75
//
compound: O=C(CCN1CCCC1)N[C@@H]1CCN(c2c(F)cc3c(=O)c(C(=O)NCCN4CCOCC4)cn4c3c2Oc2cc3c(cc2-4)oc2ccccc23)C1
IC50, µM: 0.375
//
compound: CC1(C)CC(NC(=O)c2cn3c4c(c(N5CCC(NC(=O)OC(C)(C)C)C5)ccc4c2=O)Oc2cc4ccccc4cc2-3)CC(C)(C)N1 (stereo not drawn)
IC50, µM: 1.75
//
compound: CN(C)CCCCNC(=O)c1cn2c3c(c(NCCC4CCCN4C)c(F)cc3c1=O)Oc1c-2ccc2ccccc12 (stereo not drawn)
IC50, µM: 0.375
//
compound: Nc1c(F)c(NCCCN2CCOCC2)c2c3c1c(=O)c(C(=O)NCCN1CCCC1)cn3-c1cc3ccccc3cc1O2
IC50, µM: 0.75
